Biological target: SolinPBAN-R (Solenopsis invicta)
Sequence (L0APC6 1-605): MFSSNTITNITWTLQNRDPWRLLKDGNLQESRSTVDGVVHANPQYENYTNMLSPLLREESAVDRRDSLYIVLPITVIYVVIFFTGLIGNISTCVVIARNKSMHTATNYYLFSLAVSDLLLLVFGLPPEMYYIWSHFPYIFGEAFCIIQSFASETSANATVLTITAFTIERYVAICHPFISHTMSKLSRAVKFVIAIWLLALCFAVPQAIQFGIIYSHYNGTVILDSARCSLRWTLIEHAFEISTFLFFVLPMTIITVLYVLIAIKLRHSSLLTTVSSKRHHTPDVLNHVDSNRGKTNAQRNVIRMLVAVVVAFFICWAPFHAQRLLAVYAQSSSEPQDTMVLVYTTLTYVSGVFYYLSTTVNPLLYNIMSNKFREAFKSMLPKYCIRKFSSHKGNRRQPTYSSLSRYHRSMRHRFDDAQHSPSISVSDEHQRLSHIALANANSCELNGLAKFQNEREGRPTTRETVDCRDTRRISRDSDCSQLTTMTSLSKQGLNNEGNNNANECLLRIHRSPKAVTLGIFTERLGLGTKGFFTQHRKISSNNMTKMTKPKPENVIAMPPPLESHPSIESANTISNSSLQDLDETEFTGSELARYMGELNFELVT
Assay: SolinPBAN-R/peptide binding assay (calcium-based Fluo-4AM fluorescence in Sf9 cells expressing SolinPBAN-R)
Assay type: cell-based
Settings: SolinPBAN-R expressed in Sf9 cells; Fluo-4AM fluorescence relative to 1 µM ionomycin maximum; read-out: EC50 (half-maximal effective concentration), binding activity to SolinPBAN-R
Experimental: Poly(A) RNA was isolated from whole bodies and heads of S. invicta workers and mature female alates for synthesis cDNA as described previously. […] Sequences of the receptor DNA and corresponding amino acids were analyzed by Genetyx software ver. […] All peptides used in this study were synthesized or purchased from Sigma Genosys or Peninsula Laboratories. […] Fluorescence measurements from each well were taken every 10s. […]
Ends that are not written are not given here.
We begin with a simple list: items and their reported EC50.

{"Substance": "NDVKDGAASGAHSDRLGLWFGPRL-NH2 [HelzePGN24 (DH)]", "EC50": "> 1000 nM"}

Which EC50 value is on record for TGPSASSGLWFGPRL-NH2 [DromePK1] ? > 1000 nM

---

Target: SolinPBAN-R (Solenopsis invicta)
Sequence (L0APC6 1-605): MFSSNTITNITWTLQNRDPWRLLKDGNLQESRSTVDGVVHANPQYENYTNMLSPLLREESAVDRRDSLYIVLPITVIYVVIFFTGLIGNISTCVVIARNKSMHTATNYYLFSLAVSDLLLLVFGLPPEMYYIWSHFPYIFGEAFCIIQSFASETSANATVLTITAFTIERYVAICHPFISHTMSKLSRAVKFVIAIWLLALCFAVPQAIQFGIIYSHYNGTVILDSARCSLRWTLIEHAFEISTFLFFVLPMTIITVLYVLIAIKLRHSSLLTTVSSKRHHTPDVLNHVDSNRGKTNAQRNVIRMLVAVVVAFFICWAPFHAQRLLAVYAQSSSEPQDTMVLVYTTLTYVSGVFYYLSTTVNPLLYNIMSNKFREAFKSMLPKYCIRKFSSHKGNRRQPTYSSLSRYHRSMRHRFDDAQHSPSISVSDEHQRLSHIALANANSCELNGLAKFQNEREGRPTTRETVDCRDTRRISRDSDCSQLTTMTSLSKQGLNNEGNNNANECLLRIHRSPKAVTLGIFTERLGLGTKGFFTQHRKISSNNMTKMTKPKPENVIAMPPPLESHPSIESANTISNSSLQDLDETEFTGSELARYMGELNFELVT
Assay: SolinPBAN-R/peptide binding assay (calcium-based Fluo-4AM fluorescence in Sf9 cells expressing SolinPBAN-R)
Type: cell-based
Conditions: SolinPBAN-R expressed in Sf9 cells; Fluo-4AM fluorescence relative to 1 µM ionomycin maximum; N≥4; read-out: EC50 (half-maximal effective concentration), binding activity to SolinPBAN-R
Ends that are not written are not given here.
Measured quantity: pEC50
pEC50 here is simply -log10 of the concentration when that concentration is written in mol/L.

Reference set (3 entries):
{"Substance": "GSGEDLSYGDAYEVDEDDHPLFVPRL-NH2 [SolinPBAN]", "pEC50": 7.74}
{"Substance": "LSDDMPATPADQEMYRQDPEQIDSRTKYFSPRL-NH2 [HelzePBAN]", "pEC50": 7.25}
{"Substance": "SVPFKPRL-NH2 [DromePK2]", "pEC50": 6.79}

Alright, here's another substance for you.
Give SolinPBAN-R (Solenopsis invicta) pEC50 for TSQDIASGMWFGPRL-NH2 [SolinDH] 6.90
